Attribution: patent US20210145976A1

- assayed system: human serum albumin (human) (UniProt P02768)
- Sequence (P02768 25-609 limits assumed): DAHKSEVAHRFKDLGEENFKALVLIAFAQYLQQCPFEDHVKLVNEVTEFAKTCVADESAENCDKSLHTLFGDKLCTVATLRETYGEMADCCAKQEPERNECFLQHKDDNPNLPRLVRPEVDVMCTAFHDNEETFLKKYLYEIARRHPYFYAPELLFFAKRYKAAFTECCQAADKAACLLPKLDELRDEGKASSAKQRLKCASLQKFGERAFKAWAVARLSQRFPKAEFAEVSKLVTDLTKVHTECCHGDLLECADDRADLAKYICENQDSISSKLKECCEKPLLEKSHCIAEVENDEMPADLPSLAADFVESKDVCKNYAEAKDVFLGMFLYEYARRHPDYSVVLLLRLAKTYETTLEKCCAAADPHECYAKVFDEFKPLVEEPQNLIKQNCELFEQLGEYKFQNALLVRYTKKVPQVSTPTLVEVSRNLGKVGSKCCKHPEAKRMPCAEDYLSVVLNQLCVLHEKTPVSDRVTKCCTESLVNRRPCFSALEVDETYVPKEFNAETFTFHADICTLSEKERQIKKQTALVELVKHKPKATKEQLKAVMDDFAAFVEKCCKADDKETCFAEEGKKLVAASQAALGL
- protocol summary: screening ELISA
Form field: HSA (one value per entry).
measurement type: HSA

>  <binder>
SEQ ID NO 251 (designed binder) MLPAPKNLVVSRVTEDSARLSWTAPDAAFDSFFIGYLEPQPPGEAIVLTVPGSERSYDLTGLKPGTEYNVTIQGVKGGFPSMPLSAIVTT

>  <result>
9650

$$$$
>  <binder>
SEQ ID NO 100 (designed binder) MLPAPKNLVVSRVTEDSARLSWTAPDAAFDSFWIEYWEVVGFGEAIVLTVPGSERSYDLTGLKPGTEYWVGIYGVKGGNPSVPLSAIFTT

>  <result>
2350

$$$$
>  <binder>
SEQ ID NO 149 (designed binder) MLPAPKNLVVSRVTEDSARLSWTAPDAAFDSFIIPYAEVRPDGEAIVLTVPGSERSYDLTGLKPGTEYSVLIHGVKGGKLSEPLSAIFTT

>  <result>
3350

$$$$
>  <binder>
SEQ ID NO 199 (designed binder) MLPAPKNLVVSRVTEDSARLSWTAPDAAFDSFGIRYFEWWDLGEAIVLTVPGSERSYDPTGLKPGTEYNVTIQGVKGGFPSMPLSAIFTT

>  <result>
14400

$$$$
>  <binder>
SEQ ID NO 215 (designed binder) MLPAPKNLVVSRVTEDSARLSWTAPDAAFDSFLIPYAETSPTGEAIVLTVPGSERSYDLTGLKPGTEYSVLIHGVKGGYPSSPLSAIFTT

>  <result>
1750

$$$$
>  <binder>
SEQ ID NO 309 (designed binder) MLPAPKNLVVSRVTEDSARLSWTAPDAAFDSFIIDYLELDQEGEAIVLTVPGSERSYDLTGLKPGTEYAVYIFGVKGGYPSTPLSAIFTT

>  <result>
2850

$$$$
>  <binder>
SEQ ID NO 56 (designed binder) MLPAPKNLVVSRVTEDSARLSWTAPDAAFDSFVIEYFEALEGGEAIVLTVPGSERSYDLTGLKPGTEYFVGIYGVKGGPLSKPLSAIFTT

>  <result>
7520

$$$$
>  <binder>
SEQ ID NO 248 (designed binder) MGSLPAPKNLVVSRVTEDSARLSWTAPDAAFDSFAIPYAEPSPTGEAIVLTVPGSERSYDLTGLKPGTEYPVWIQGVKGGSPSAPLSAEFTT

>  <result>
15100

$$$$
>  <binder>
SEQ ID NO 305 (designed binder) MLPAPKNLVVSRVTEDSARLSWTAPDAAFDSFEIDYDEPFVYGEAIVLTVPGSERSYDLTGLKPGTEYRVFIFGVKGGNGSWPLSAIFTT

>  <result>
25000

$$$$
